tested on: Human papillomavirus type 1a protein E7 (residues 44-93); experiment: small molecules binding HPV E7 44-93 – biochemical, small-molecule microarray, residues 44-93, 635 nm fluorescence, primary screen (AID 1108); details: fluorescence 635 nm, higher = more signal;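 also: E7 fragment applied at 1 µg/mL in TBST for 1 h at 4 C; score combines spot fluorescence with its signal to noise ratio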
Quantity name: composite z-score

The examples below pair each entry with its known result.
| Compound | Observed measurement |
| --- | --- |
| O=C1OCC=C[C@H]2OC34C=CCN(Cc5ccccc5)C(=O)[C@H]3N(CCCO)C(=O)[C@@H]4[C@@H]12 (stereo partly specified) | 1.22 |
| CN1C(=O)C2C=CC(C(O)c3ccc(Br)cc3)N(Nc3ccccc3)C2C1=O (stereo unspecified) | -0.0441 |
| CCCCN1CC=CC23O[C@@H]4/C=C\CCCOC(=O)C4[C@H]2C(=O)N(C(C)CO)[C@@H]3C1=O (stereo partly specified) | -0.779 |
| Cc1ccc(N2C(=O)c3ccccc3[C@@H](C(=O)NC(C)C)[C@@H]2c2ccc(CO)cc2)nc1 | -0.191 |
| COC(=O)[C@@]1(Cc2ccc(OC)cc2)[C@H]2c3cc(C(=O)N4CCCC4)n(CCN4CCOCC4)c3C[C@H]2CN1C(=O)c1ccccc1 | 1.04 |

Incoming: So what composite z-score did NC(=O)[C@@]1(CCS(=O)(=O)c2ccccc2)N=C(c2ccc(OCCCO)cc2)O[C@H]1c1ccccc1 get with Human papillomavirus type 1a protein E7 (residues 44-93)?
Outgoing: 1.49

Incoming: Please answer likewise for CN(C)CCCCNC(=O)[C@@H]1C[C@@H]2C(=O)N[C@@H](CCCCN)C(=O)N2[C@@H]1c1cccc(OCCO)c1
Outgoing: 0.572

Incoming: And for C=CCC(OC(C)=O)[C@@H]1[C@@H](N(Cc2ccc(-c3cccc(C(F)(F)F)c3)o2)C(=O)Cc2ccc(OC)cc2)c2cc(OCCCO)ccc2N1C(=O)Cc1ccc(OC)cc1 (stereo partly specified) ?
Outgoing: -0.641

Incoming: Now give it for C=CCNC(=O)[C@H]1[C@@H]2C(=O)O[C@@H](c3ccccc3)[C@@H](c3ccccc3)N2[C@@H](c2ccc(OCCO)cc2)[C@]12C(=O)N(C(=O)OCCOC)c1ccc(C#CC3(O)CCCCCC3)cc12 too.
Outgoing: 1.18

Incoming: One more compound: [N-]=[N+]=NCc1ccccc1C[C@]1(C(=O)NCC(O)CO)COC(c2ccc(OCCCO)cc2)=N1 (stereo partly specified)
Outgoing: 0.912

Incoming: Entry O=C(NCC(O)CO)[C@@]1(Cc2ccccc2)N=C(c2ccc(OCCCO)cc2)O[C@H]1c1ccccc1 (stereo partly specified) please
Outgoing: 0.546

Incoming: Could you do the same for Cc1ccc(C(C)CC(O)C2C=CC3C(=O)NC(=O)C3N2Nc2ccccn2)o1 (stereo unspecified) , please?
Outgoing: 0.0598

Incoming: And then CO[C@H]1O[C@H](CO)[C@@H](OC(=O)Nc2cccc(F)c2)[C@H](OC(=O)Nc2ccccc2-c2ccccc2)[C@@H]1OC(=O)Nc1ccccc1-c1ccccc1 , what is it?
Outgoing: 1.16

Incoming: Try CN1C(=O)C2C(C1=O)C1C=C(c3ccc(CO)cc3)C2C(C2CC2)N1Cc1cc2c(cc1Br)OCO2 (stereo unspecified) next.
Outgoing: 1.36

Incoming: Quick one: C/C=C/[C@H](CCn1cc([C@H](O)c2ccccc2)nn1)[Si](C)(C)c1ccc(OC)cc1
Outgoing: -0.0636

Incoming: Similarly, Cn1c2c(c3ccccc31)C(=O)C1NC2C=CC1(C)C(=O)OCc1ccccc1 (stereo unspecified) ?
Outgoing: -0.369
